target: T1, human CD33 (human, UniProt P20138 18-259, limits assumed); assay: BLI (ForteBio), Fab 100 nM on immobilized CD33
T1 construct: Human CD33 immobilized on the BLI sensor tip or the BIAcore C1 chip; also called Siglec-3
T1 sequence (P20138 18-259 limits assumed): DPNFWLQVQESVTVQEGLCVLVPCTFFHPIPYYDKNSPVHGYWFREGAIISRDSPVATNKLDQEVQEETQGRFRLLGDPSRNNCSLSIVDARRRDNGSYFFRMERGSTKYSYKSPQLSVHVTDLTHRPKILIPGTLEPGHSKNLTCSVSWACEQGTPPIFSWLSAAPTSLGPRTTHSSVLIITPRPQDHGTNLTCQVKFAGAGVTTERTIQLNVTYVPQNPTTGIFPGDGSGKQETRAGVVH
The entries below are paired with their reported Fold affinity improvement over parental Ab (AB-H14).
REPORTED METRIC: Fold affinity improvement over parental Ab (AB-H14) (fold)

{"BINDER": "AB-14.5 (antibody, V domains shown) VH: QVQLVQSGAEVKKPGASVKVSCKASGYTFTDYNYHWVRQAPGQGLEWIGFIYPSNGITGYAQKFQGRVTMTVDTSTSTVYMELSSLRSEDTAVYYCARSDVDYFDYWGQGTLVTVSS VL: DIQMTQSPSSLSASVGDRVTITCRASQDVSTSTYSYMHWYQRKPGKAPKLLIKYASNLESGVPSRFSGSGSGTDFTLTISSLQPEDFATYYCQHSWEIPLTFGQGTKLEIK", "UNITS OF MEASURE": "fold", "OBSERVED": 13.7}
{"BINDER": "AB-14.1 (antibody, V domains shown) VH: QVQLVQSGAEVKKPGASVKVSCKASGATFTDYNFHWVRQAPGQGLEWIGFIYPSNGITGYAQDFQGRVTMTVDTSTSTVYMELSSLRSEDTAVYYCARSDVDYFDYWGQGTLVTVSS VL: DIQMTQSPSSLSASVGDRVTITCRASQSVSTSTYSYMHWYQQKPGKAPKLLIKYASNLESGVPSRFSGSGSGTDFTLTISSLQPEDFATYYCQHSWEIPLTFGQGTKLEIK", "UNITS OF MEASURE": "fold", "OBSERVED": 9.73}
{"BINDER": "AB-14.7 (antibody, V domains shown) VH: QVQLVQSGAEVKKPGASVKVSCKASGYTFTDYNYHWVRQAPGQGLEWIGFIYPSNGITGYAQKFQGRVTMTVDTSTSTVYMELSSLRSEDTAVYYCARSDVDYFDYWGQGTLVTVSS VL: DIQMTQSPSSLSASVGDRVTITCRASQSVGTSTYSYMHWYQQKPGKAPKLLIKYASNLESGVPSRFSGSGSGTDFTLTISSLQPEDFATYYCQHSWEIPLTFGQGTKLEIK", "UNITS OF MEASURE": "fold", "OBSERVED": 11.8}
